system: T1, CA-14 bound to cannabidiol (CA-14-CBD complex) (non-covalently bound cannabidiol (CBD); AviTag biotinylated by BirA where immobilised (ELISA))
T1 construct: Same polypeptide as m1, pre-equilibrated with the small molecule cannabidiol; also called CBD-CA-14 complex; not shown: C-terminal AviTag and His tag
test.description: BLI (Octet RED96), biotinylated DB on streptavidin sensor, 1 uM CA-14 pre-equilibrated with CBD
Text: With the purified DB nanobodies in hand, we first sought to determine their binding affinities to the CA-14-CBD. CBD might directly bind to selected dimerization binders, which can affect the affinity measurement. To rule out this possibility, the four nanobodies were biotinylated (FIG. 7c) and immobilized on streptavidin biosensors, and the interaction with CBD was detected by BL1. Only minimal binding between CBD and the dimerization binders was detected (data not shown). […]
measurement.type: pKd
Scale: negative log10 of molar concentration, which is what pKd denotes.

[Q] Item under review: dimerization binder DB-11 (VHH, AviTag biotinylated by BirA (BLI), Purified, tagged and biotinylated in BLI; not shown: C-terminal AviTag and His tag (purified form)) VHH: EVQLQASGGGFVQPGGSLRLSCAASGTTSDNDTMGWFRQAPGKEREFVSAISWNGGRDEYYADSVKGRFTISRDNSKNTVYLQMNSLRAEDTATYYCAYQDNRSWQEYWGQGTQVTVSS . Reported pKd?
[A] 5.86

[Q] Which value of pKd has been reported for dimerization binder DB-6 (VHH, AviTag biotinylated by BirA (BLI), Purified, tagged and biotinylated in BLI; not shown: C-terminal AviTag and His tag (purified form)) VHH: EVQLQASGGGFVQPGGSLRLSCAASGRFSWGEEMGWFRQAPGKEREFVSAISWAATPWQYYADSVKGRFTISRDNSKNTVYLQMNSLRAEDTATYYCADEWHIGHVSYWGQGTQVTVSS in the records?
[A] 4.72

[Q] I am curious: what pKd value has been reported for dimerization binder DB-21 (VHH, AviTag biotinylated by BirA (BLI), Purified and tagged in BLI (biotinylated) and SEC; the form used in the sandwich ELISA-like assay is not clearly stated (same id used for all); not shown: C-terminal AviTag and His tag (purified form)) VHH: EVQLQASGGGFVQPGGSLRLSCAASGTTYGQTNMGWFRQAPGKEREFVSAISGLQGRDLYYADSVKGRFTISRDNSKNTVYLQMNSLRAEDTATYYCAFHDFLRMWEYWGQGTQVTVSS ?
[A] 7.25

[Q] Look at this binder and give its reported pKd. dimerization binder DB-18 (VHH, AviTag biotinylated by BirA (BLI), Purified and tagged in BLI (biotinylated) and SEC; also called 1DB-18; not shown: C-terminal AviTag and His tag (purified form)) VHH: EVQLQASGGGFVQPGGSLRLSCAASGGYSRADDMGWFRQAPGKEREFVSAISFGETDSFYYADSVKGRFTISRDNSKNTVYLQMNSLRAEDTATYYCAYHNYTNMFEYWGQGTQVTVSS
[A] 6.26
